- system_name: Dihydrofolate reductase (Bos taurus)
- Sequence (P00376 whole entry): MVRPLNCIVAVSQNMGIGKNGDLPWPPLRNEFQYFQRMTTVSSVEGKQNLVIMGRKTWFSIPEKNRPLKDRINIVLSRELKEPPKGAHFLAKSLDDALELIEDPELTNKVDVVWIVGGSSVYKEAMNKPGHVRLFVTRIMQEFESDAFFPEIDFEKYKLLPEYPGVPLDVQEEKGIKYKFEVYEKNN
Below are IC50 measurements against Dihydrofolate reductase (Bos taurus) drawn from the literature.
readout_label: IC50 (µM)

molecule: CCCCCCCCCCCCCCCCOC(=O)CCC(NC(=O)c1ccc(N(C)Cc2cnc3nc(N)nc(N)c3n2)cc1)C(=O)O (centres undefined)
observed_measurement: 0.037
--
molecule: COc1cc2nc(SCc3cc(OC)c(OC)c(OC)c3)n(-c3ccccc3)c(=O)c2cc1OC
observed_measurement: 0.9
--
molecule: COc1ccc(OCCCON2C(N)=NC(N)=NC23CCCC3)cc1
observed_measurement: 0.0112
--
molecule: CC(C)(C)c1ccc(OCCCON2C(N)=NC(N)=NC23CCCCC3)cc1
observed_measurement: 0.0215

====

Below are log10 IC50 measurements against Dihydrofolate reductase (Bos taurus, UniProt P00376) drawn from the literature.
- system_name: Dihydrofolate reductase (Bos taurus, UniProt P00376)
- Sequence (P00376 whole entry): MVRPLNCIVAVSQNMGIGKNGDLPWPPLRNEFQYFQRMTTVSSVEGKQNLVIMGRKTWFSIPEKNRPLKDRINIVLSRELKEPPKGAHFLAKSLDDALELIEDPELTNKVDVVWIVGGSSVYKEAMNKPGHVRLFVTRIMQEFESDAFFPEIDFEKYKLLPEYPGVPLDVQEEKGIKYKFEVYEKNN
readout_label: log10 IC50 (log10 of the value in nM)

compound: COc1cc2nc(Sc3cc([N+](=O)[O-])ccc3C(=O)O)n(-c3ccccc3)c(=O)c2cc1OC
log10 IC50: 4.00

compound: CCOC(=O)c1nc(N)sc1Sc1nc2ccc(Cl)cc2c(=O)n1-c1ccccc1
log10 IC50: 3.48

compound: CCCCOC(=O)CCC(NC(=O)c1ccc(N(C)Cc2cnc3nc(N)nc(N)c3n2)cc1)C(=O)O (centres undefined)
log10 IC50: 0.73

compound: COc1ccc(CSc2nc3ccc(C)cc3c(=O)n2-c2ccccc2)cc1
log10 IC50: 2.00

compound: Cc1ccc2nc(Sc3cc([N+](=O)[O-])ccc3C(=O)O)n(Cc3ccccc3)c(=O)c2c1
log10 IC50: 4.08

compound: CC(=O)c1ccc(OCCCON2C(N)=NC(N)=NC23CCCC3)cc1
log10 IC50: 0.96

compound: COc1ccc(/C=C2\CCCC3=C(c4ccc(OC)c(OC)c4)Nc4ccccc4N=C32)cc1OC
log10 IC50: 1.78

compound: Cc1cc2c(cc1C)NC(c1ccc(Br)cc1)=C1CCC/C(=C\c3ccc(Br)cc3)C1=N2
log10 IC50: 4.32

compound: CC(C)(C)c1ccc(OCCCON2C(N)=NC(N)=NC23CCCC3)cc1
log10 IC50: 1.23

====

- system_name: UniProt:P00376
- Sequence (P00376 whole entry): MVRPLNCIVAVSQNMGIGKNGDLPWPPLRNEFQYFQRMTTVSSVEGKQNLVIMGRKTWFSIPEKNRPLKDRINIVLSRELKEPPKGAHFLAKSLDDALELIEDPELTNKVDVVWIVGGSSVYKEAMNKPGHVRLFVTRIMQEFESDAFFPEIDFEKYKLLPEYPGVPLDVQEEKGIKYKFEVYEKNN
Below are IC50 measurements against UniProt:P00376 drawn from the literature.
Values of IC50 strictly less than 70 nM map to satisfied, and values of at least 70 nM map to not satisfied.

compound: COc1ccc(CSc2nc3ccc(C)cc3c(=O)n2-c2ccccc2OC)cc1
qualitative_label: not satisfied
--
compound: CN(Cc1cnc2nc(N)nc(N)c2n1)c1ccc(C(=O)NC(CCC(=O)NN)C(=O)OC(C)(C)C)cc1 (stereo not given)
qualitative_label: not satisfied
--
compound: COc1ccc(-n2c(C(CC(C)C)NS(=O)(=O)c3ccc(N)cc3)nc3ccccc3c2=O)cc1 (stereo not given)
qualitative_label: not satisfied
--
compound: COC(=O)CCC(NC(=O)c1ccc(N(C)Cc2cnc3nc(N)nc(N)c3n2)cc1)C(=O)O (stereo not given)
qualitative_label: not satisfied
--
compound: COc1ccc(-n2c(SCc3cc(OC)c(OC)c(OC)c3)nc3cc(OC)c(OC)cc3c2=O)cc1
qualitative_label: not satisfied
--
compound: CC(C)CC(NS(=O)(=O)c1ccc(N)cc1)c1nc2ccccc2c(=O)n1-c1cccc(Cl)c1 (stereo not given)
qualitative_label: not satisfied
--
compound: COc1ccc(CSc2nc3ccc(Cl)cc3c(=O)n2Cc2ccccc2)cc1
qualitative_label: not satisfied
--
compound: Cc1nc(N)sc1Sc1nc2ccc(Cl)cc2c(=O)n1Cc1ccccc1
qualitative_label: not satisfied
--
compound: CN(Cc1cnc2nc(N)nc(N)c2n1)c1ccc(C(=O)NC(CCC(=O)NN)C(=O)O)cc1 (stereo not given)
qualitative_label: not satisfied
--
compound: COc1ccc(CSc2nc3ccc(Cl)cc3c(=O)n2-c2ccccc2)cc1
qualitative_label: satisfied
--
compound: CCOC(=O)c1nc(N)sc1Sc1nc2cc(OC)c(OC)cc2c(=O)n1Cc1ccccc1
qualitative_label: not satisfied
--
compound: COc1ccc(CSc2nc3ccc(C)cc3c(=O)n2Cc2ccccc2)cc1
qualitative_label: satisfied
--
compound: O=[N+]([O-])c1ccccc1/C=N/c1nc2ccccc2s1
qualitative_label: satisfied
--
compound: COc1ccc(CSc2nc3cc(OC)c(OC)cc3c(=O)n2Cc2ccccc2)cc1
qualitative_label: not satisfied
--
compound: COc1ccc(CSc2nc3cc(OC)c(OC)cc3c(=O)n2-c2ccccc2OC)cc1
qualitative_label: not satisfied
--
compound: CC(=O)c1ccc(OCCCON2C(N)=NC(N)=NC23CCCCC3)cc1
qualitative_label: satisfied
--
compound: CC(C)CC(NS(=O)(=O)c1ccc(N)cc1)c1nc2ccccc2c(=O)n1-c1ccccc1Br (stereo not given)
qualitative_label: not satisfied
--
compound: COc1ccc(-n2c(S)nnc2-c2csc(N)n2)cc1
qualitative_label: not satisfied
--
compound: Clc1ccc(/C=N/c2nc3ccccc3s2)cc1
qualitative_label: satisfied
--
compound: COc1ccc(-n2c(SCc3cc(OC)c(OC)c(OC)c3)nc3ccc(Cl)cc3c2=O)c(OC)c1
qualitative_label: not satisfied
--
compound: COc1ccc(CSc2nc3ccc(Cl)cc3c(=O)n2-c2ccc(Cl)cc2)cc1
qualitative_label: not satisfied
--
compound: CN(Cc1cnc2nc(N)nc(N)c2n1)c1ccc(C(=O)NC(CCC(=O)NN)C(=O)NN)cc1 (stereo not given)
qualitative_label: not satisfied
--
compound: CCOC(=O)c1nc(N)sc1Sc1nc2ccc(Cl)cc2c(=O)n1Cc1ccccc1
qualitative_label: not satisfied
--
compound: Clc1ccc(/C=C2\CCCC3=C(c4ccc(Cl)cc4)Nc4cc(Cl)c(Cl)cc4N=C32)cc1
qualitative_label: not satisfied
--
compound: Cc1ccc2nc(Sc3cc([N+](=O)[O-])ccc3C(=O)O)n(-c3ccccc3)c(=O)c2c1
qualitative_label: not satisfied
--
compound: COc1cc2nc(Sc3nnc(N)s3)n(Cc3ccccc3)c(=O)c2cc1OC
qualitative_label: not satisfied
--
compound: Oc1ccc(/C=N/c2nc3ccccc3s2)cc1
qualitative_label: satisfied
--
compound: O=[N+]([O-])c1cccc(/C=N/c2nc3ccccc3s2)c1
qualitative_label: satisfied
--
compound: COc1cc(CSc2nc3ccc(Cl)cc3c(=O)n2-c2ccc(C)cc2)cc(OC)c1OC
qualitative_label: not satisfied
--
compound: NC1=NC2(CCCC2)N(OCCCOc2ccc([N+](=O)[O-])cc2)C(N)=N1
qualitative_label: satisfied
--
compound: Cc1cc2c(cc1C)NC(c1ccc(Cl)cc1)=C1CCC/C(=C\c3ccc(Cl)cc3)C1=N2
qualitative_label: not satisfied
--
compound: COc1ccc(OCCCON2C(N)=NC(N)=NC23CCCCC3)cc1
qualitative_label: satisfied
--
compound: NC1=NC2(CCCCC2)N(OCCCOc2ccc(F)cc2)C(N)=N1
qualitative_label: satisfied
--
compound: COc1ccc(CSc2nc3ccc(Cl)cc3c(=O)n2-c2ccc(OC)cc2OC)cc1
qualitative_label: not satisfied
--
compound: COc1ccc(/C=C2\CCCC3=C(c4ccc(OC)c(OC)c4)Nc4cc(C)c(C)cc4N=C32)cc1OC
qualitative_label: satisfied
--
compound: CCOC(=O)c1nc(N)sc1Sc1nc2ccc(C)cc2c(=O)n1-c1ccccc1
qualitative_label: not satisfied
--
compound: COc1cc2nc(SCc3cc(OC)c(OC)c(OC)c3)n(-c3ccccc3OC)c(=O)c2cc1OC
qualitative_label: not satisfied
--
compound: CC(C)CC(NS(=O)(=O)c1ccc(N)cc1)c1nc2ccccc2c(=O)n1-c1ccc(Br)cc1 (stereo not given)
qualitative_label: not satisfied
--
compound: CCN(CC)CCCC(C)Nc1ccnc2cc(Cl)ccc12 (stereo not given)
qualitative_label: satisfied
--
compound: Cc1ccc(OCCCON2C(N)=NC(N)=NC23CCCC3)cc1
qualitative_label: satisfied
